- System Under Test: human JAK3 (a.a. 781-1124) (Homo sapiens, UniProt P52333)
- Construct: JAK3 (a.a. 781-1124); His tag (N); made in house; host or cells: insect cells (baculovirus)
- Sequence (P52333 781-1124): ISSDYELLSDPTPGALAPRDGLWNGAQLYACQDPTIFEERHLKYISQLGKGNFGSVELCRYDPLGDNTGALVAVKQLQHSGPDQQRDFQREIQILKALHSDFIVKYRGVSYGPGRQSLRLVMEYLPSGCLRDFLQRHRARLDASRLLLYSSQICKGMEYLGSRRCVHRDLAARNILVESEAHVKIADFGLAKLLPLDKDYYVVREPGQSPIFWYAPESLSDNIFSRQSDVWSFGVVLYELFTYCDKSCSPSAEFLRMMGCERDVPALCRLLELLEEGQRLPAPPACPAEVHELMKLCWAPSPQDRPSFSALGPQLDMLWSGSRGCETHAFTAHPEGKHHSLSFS
- Measurement Notes: In vitro JAK kinase assay (HTRF, phosphorylation of a biotinylated peptide), JAK3
- Assay type: biochemical
- Condition Description: Table B1
Where a name gives a salt, the structure may show the parent alone.
The compounds listed here are annotated with their IC50.

Here's what some known entries look like.
Compound | IC50
O=C(Nc1ccc2cc1CCc1cncc(c1)Nc1ncc(Cl)c(n1)N2)N1CCN(S(=O)(=O)c2ccccc2)CC1 [Example B319, bis(trifluoroacetate)] | > 400 nM
CN1CCN(C(=O)c2cc3cc(c2)Nc2nc(ncc2Cl)Nc2cccc(c2)CC3)CC1 [Example B8, trifluoroacetate] | > 1000 nM

# input compound: CNCc1ccc2cc1CCc1cncc(c1)Nc1ncc(Cl)c(n1)N2 [Example B334, trihydrochloride] ; wanted: its IC50
> 200 nM
